System: Vero E6 infected with SARS-CoV-2
assay text: inhibition of SARS-CoV-2 cytopathic effect; higher = more antiviral protection, active = above 15
conditions: 833.33 nM; 48 h
reported metric: inhibition of SARS-CoV-2 cytopathic effect (%)
Give the quantity in %, number only.

| molecule | result units | reading |
| --- | --- | --- |
| C[C@@H](N[C@H]1CCCC[C@@H]1NC(=O)c1ccc(Cl)cc1)c1cccc2ccccc12 | % | 5.65 |
| C#Cc1cccc(Nc2ncnc3cc4c(cc23)OCCOCCOCCO4)c1 | % | -2.37 |
| CC(C)(C)CC(C)(C)c1cc(Cc2cc(C(C)(C)CC(C)(C)C)cc(-n3nc4ccccc4n3)c2O)c(O)c(-n2nc3ccccc3n2)c1 | % | 1.93 |
| CNCCC=C1c2ccccc2C=Cc2ccccc21 | % | -0.19 |
| O=c1cc(-c2ccccc2)oc2cc(O)c(O)c(O)c12 | % | -2.55 |

Inquiry: Consider the molecule shown here: "Cc1cccc(-c2[nH]c(CNc3ccccc3F)nc2-c2ccc3ncnn3c2)n1" What is its recorded inhibition of SARS-CoV-2 cytopathic effect?
Reply text: 1.08

Inquiry: Same question for O=C(CCCl)NCc1ccccc1 [beclamide] please.
Reply text: 0.86

Inquiry: Same question for CC(Oc1c(Cl)cccc1Cl)C1=NCCN1 (stereo not drawn) please.
Reply text: 7.76

====

Catalogue of inhibition of SARS-CoV-2 cytopathic effect readings, one per entry.
System: Vero E6 infected with SARS-CoV-2
assay text: inhibition of SARS-CoV-2 cytopathic effect; higher = more antiviral protection, active = above 15
conditions: 100 nM; 48 h
Give the quantity in %, number only.

| molecule | study target | result units | reading |
| --- | --- | --- | --- |
| NC[C@@H]1O[C@H](O[C@@H]2[C@@H](CO)OC(O[C@@H]3[C@@H](O)[C@H](N)C[C@H](N)[C@H]3OC3O[C@H](CN)[C@@H](O)[C@H](O)[C@H]3N)[C@@H]2O)[C@H](N)[C@@H](O)[C@@H]1O (stereo partly specified) | Vero E6 infected with SARS-CoV-2 | % | 0.22 |
| Clc1cccc(Cl)c1CSc1nnc(-c2cnccn2)s1 | Vero E6 infected with SARS-CoV-2 | % | -0.57 |
| COc1cc(Br)c(S(=O)(=O)Nc2ccc(C(F)(F)F)c(O[C@@H]3CCN(C)C3)c2)cc1OC | Vero E6 infected with SARS-CoV-2 | % | -1.36 |

Inquiry: Consider the molecule shown here: "Cc1cc2nc3c(=O)[nH]c(=O)nc-3n(C[C@H](O)[C@H](O)[C@H](O)CO)c2cc1C" What is its recorded inhibition of SARS-CoV-2 cytopathic effect?
Reply text: -1.7

Inquiry: Same question for CC(C)CC(NC(=O)OCC1c2ccccc2-c2ccccc21)C(=O)O (stereo in doubt) please.
Reply text: 2.95

Inquiry: Same question for "COc1cc2c(cc1OC)CN(CCc1ccc(NC(=O)c3cc(OC)c(OC)cc3NC(=O)c3cnc4ccccc4c3)cc1)CC2" please.
Reply text: 2.75

Inquiry: Same question for "CCCC(CCC)C(=O)Nc1ccn([C@@H]2O[C@H](CO)[C@@H](O)C2(F)F)c(=O)n1" please.
Reply text: -2.25

Inquiry: Same question for "Nc1c(Br)cc(Br)cc1CN[C@H]1CC[C@H](O)CC1" please.
Reply text: -0.99

Inquiry: Same question for "Cc1cc(Nc2ncc(Cl)c(Nc3ccccc3S(=O)(=O)C(C)C)n2)c(OC(C)C)cc1C1CCNCC1" please.
Reply text: 2.17

Inquiry: Same question for "c1coc(-c2nnc3sc(C4CCCCC4)nn23)c1" please.
Reply text: 0.69

Inquiry: Same question for "CCCCCCCCCCC(C)(C)C(=O)Nc1c(OC)cc(OC)cc1OC" please.
Reply text: 5.14

Inquiry: Same question for Clc1ccc2c(N3CCN(CCCN4CCN(c5ccnc6cc(Cl)ccc56)CC4)CC3)ccnc2c1 [piperaquine-phosphate] please.
Reply text: -0.14

Inquiry: Same question for "Cc1[nH]cnc1CN1CCc2c(c3ccccc3n2C)C1=O" please.
Reply text: -3.51

====

Tested on: Vero E6 infected with SARS-CoV-2
assay text: inhibition of SARS-CoV-2 cytopathic effect; higher = more antiviral protection, active = above 15
conditions: 8.33 nM; 48 h
reported metric: inhibition of SARS-CoV-2 cytopathic effect (%)
Give the quantity in %, number only.

Inquiry: Consider the molecule shown here: "CCCCC(=O)O[C@]1(C(=O)CO)[C@@H](C)C[C@H]2[C@@H]3CCC4=CC(=O)C=C[C@]4(C)[C@@]3(F)[C@@H](O)C[C@@]21C" What is its recorded inhibition of SARS-CoV-2 cytopathic effect?
Reply text: -2.7

Inquiry: Same question for COc1ccc(C(CN(C)C)C2(O)CCCCC2)cc1 (stereo unspecified) please.
Reply text: 0.96

Inquiry: Same question for "CC1=C(/C=C/C(C)=C/C=C/C(C)=C/C=O)C(C)(C)CCC1" please.
Reply text: 1.56

Inquiry: Same question for "CC(=O)OC[C@H]1O[C@@H]([S-])[C@H](OC(C)=O)[C@@H](OC(C)=O)[C@@H]1OC(C)=O.CCP(CC)CC.[Au+]" please.
Reply text: 4.4

Inquiry: Same question for "COc1ccc(Nc2ccn(-c3ccccc3)n2)cc1" please.
Reply text: 1.12

Inquiry: Same question for "O=C(O)c1ccccc1-c1ccc(C(F)(F)F)cc1" please.
Reply text: 1.65

Inquiry: Same question for "O=C(Nc1cc(C(F)(F)F)cc(C(F)(F)F)c1)Nc1c(Br)cc(Br)cc1-c1nnn[nH]1" please.
Reply text: 1.04

====

Tested on: Vero E6 infected with SARS-CoV-2
assay text: morphology score (similarity to uninfected cells); higher = more like uninfected cells
conditions: 24 h
reported metric: morphology score
Answer with a bare number; do not write a unit.

Worked examples follow.
| compound | study target | morphology score |
| --- | --- | --- |
| Cc1cc(CCC[C@H](CC(=O)NO)C(=O)N[C@H](C(=O)N[C@H](C)c2ccccc2)C(C)(C)C)ccc1-c1ccccc1 (0.833333 µM) | Vero E6 infected with SARS-CoV-2 | -0.0923 |
| CO[C@H]1C[C@@H]2CC[C@@H](C)[C@@](O)(O2)C(=O)C(=O)N2CCCC[C@H]2C(=O)O[C@H]([C@H](C)C[C@@H]2CC[C@H](n3cnnn3)[C@H](OC)C2)CC(=O)[C@H](C)/C=C(\C)[C@@H](O)[C@@H](OC)C(=O)[C@H](C)C[C@H](C)/C=C/C=C/C=C/1C [zotarolimus] (0.833333 µM) | Vero E6 infected with SARS-CoV-2 | -0.292 |
| Cc1cc(C)c(S(=O)(=O)Nc2ccccc2C(F)(F)F)c(C)c1 (10 µM) | Vero E6 infected with SARS-CoV-2 | -0.0872 |
| Oc1cc(O)c2c(c1)O[C@H](c1ccc(O)c(O)c1)[C@@H](O)C2 [cianidanol] (10 µM) | Vero E6 infected with SARS-CoV-2 | -0.0417 |
| CC(C)[C@H](CO)Nc1nc(Nc2cc(N)cc(Cl)c2)c2ncn(C(C)C)c2n1 [aminopurvalanol-a] (0.833333 µM) | Vero E6 infected with SARS-CoV-2 | -0.224 |

Inquiry: Find the measured morphology score: item COc1ccc(O)cc1 [mequinol] (10 µM) , target or system Vero E6 infected with SARS-CoV-2.
Reply text: -0.0349

Inquiry: Same question for S=C(NC1CCCCC1)N1CCC(c2cnc[nH]2)CC1 [thioperamide] (10 µM) please.
Reply text: 0.083

====

Tested on: Vero E6 infected with SARS-CoV-2
assay text: inhibition of SARS-CoV-2 cytopathic effect; higher = more antiviral protection, active = above 15
conditions: 100 nM; 48 h
reported metric: inhibition of SARS-CoV-2 cytopathic effect (%)
Give the quantity in %, number only.

Inquiry: Consider the compound shown here: "CC(C)(C)NC[C@H](O)COc1nsnc1N1CCOCC1" What is its recorded inhibition of SARS-CoV-2 cytopathic effect?
Reply text: -1.85

Inquiry: Same question for "CO[C@@H](C)Cn1c(=O)n(C)c2cnc3ccc(-c4cncc(C(C)(C)O)c4)cc3c21" please.
Reply text: -0.9

====

System: Vero E6 infected with SARS-CoV-2
assay text: morphology score (similarity to uninfected cells); higher = more like uninfected cells
conditions: 24 h
// not fulfilled strictly below 0.09 in morphology score; fulfilled otherwise

Reference set, count: 5
| molecule | label class |
| --- | --- |
| CCCCCCCCCCCCCCCCOc1nc2ccc(C)cc2c(=O)o1 [cetilistat] (10 µM) | not fulfilled |
| NS(=O)(=O)NCCNc1nonc1/C(=N/O)Nc1ccc(F)c(Br)c1 (10 µM) | fulfilled |
| CNc1ncnc2c1ncn2[C@@H]1O[C@H](CO)[C@@H](O)[C@H]1O [N6-methyladenosine] (10 µM) | not fulfilled |
| N=C(Nc1ccccc1)Nc1ccccc1 [diphenylguanidine] (10 µM) | fulfilled |
| CCCC[C@@H](NC(=O)[C@@H](Cc1cn(C(=O)OC)c2ccccc12)NC(=O)[C@H](CC(C)(C)C)NC(=O)N1[C@H](C)CCC[C@@H]1C)C(=O)O (10 µM) | fulfilled |

Please look at the following molecule next.
Inquiry: Is the recorded value of morphology score equal to or greater than 0.09 for this molecule? COC(=O)/C=C/C(=O)N[C@@H]1CC[C@@]2(O)[C@H]3Cc4ccc(O)c5c4[C@@]2(CCN3CC2CC2)[C@H]1O5 [beta-funaltrexamine] (10 µM)
Reply text: not fulfilled
